# TARGET OR SYSTEM: Bovine LOX (Bos taurus (Bovine))
# Sequence (P33072 170-418): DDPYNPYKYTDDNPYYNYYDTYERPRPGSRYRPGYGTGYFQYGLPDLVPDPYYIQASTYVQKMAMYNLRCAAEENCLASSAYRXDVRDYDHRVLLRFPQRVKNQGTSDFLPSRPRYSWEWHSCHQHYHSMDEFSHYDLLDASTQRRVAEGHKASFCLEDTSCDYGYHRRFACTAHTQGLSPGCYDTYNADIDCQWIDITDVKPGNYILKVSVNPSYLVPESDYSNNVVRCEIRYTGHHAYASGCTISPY
# ASSAY METHOD TEXT: LOX inhibition, Amplex Red oxidation assay
# Type: biochemical
# STATED CONDITIONS: 30 min preincubation at 37 °C, putrescine substrate
# Description: Lysyl oxidase (LOX) is an extracellular copper dependent enzyme which oxidizes peptidyl lysine and hydroxylysine residues in collagen and lysine residues in elastin to produce peptidyl alpha-aminoadipic-delta-semialdehydes. […] There are five LOX family members; these are LOX, LOXL1, LOXL2, LOXL3 and LOXL4. […] The fluorescence (RFU) was read every 2.5 min for 30 min at […] 37° C., excitation 565 nm and emission 590 (Optima; BMG labtech). […]
Counter-ions that a name gives are not always drawn.
ASSAY READOUT: IC50

// known answers, use as guide
{"COMPOUND": "Cc1cccc(S(=O)(=O)C/C(F)=C/CN)c1 [Compound 41, hydrochloride]", "ASSAY READOUT": "IC50", "ASSAY VALUE": "< 10 µM"}
{"COMPOUND": "NC/C=C(\\F)CS(=O)(=O)c1cccc(F)c1 [Compound 38, hydrochloride]", "ASSAY READOUT": "IC50", "ASSAY VALUE": "< 10 µM"}

input: Consider the compound shown here: CN(C)S(=O)(=O)c1cccc(Oc2cccc(S(=O)(=O)C/C(F)=C/CN)c2)c1 [Compound 17, hydrochloride] What is its recorded IC50?
output: < 10 µM

###

# ASSAY METHOD TEXT: In vivo pharmacokinetics, plasma concentration after p.o. dosing
# Parameters: species or system Wistar rats
# STATED CONDITIONS: male, Wistar, plasma, po; rat, 10 mg/kg p.o., 1.00 hours
Counter-ions that a name gives are not always drawn.
Assignment: determine reported concentration at 1 h for the given compounds.
Numbers only, in ng/mL.

{"COMPOUND": "NC/C=C(\\F)CS(=O)(=O)c1cccc2cccnc12 [Compound 33, dihydrochloride]", "SCALE UNIT": "ng/mL", "concentration at 1 h": 548}

Please examine the following record next.
input: Consider the compound shown here: NC/C=C(\F)CS(=O)(=O)c1ccccc1 [Compound 1, hydrochloride] What is its recorded concentration at 1 h?
output: 450

###

# ASSAY METHOD TEXT: In vivo pharmacokinetics, plasma concentration after p.o. dosing
# Parameters: species or system Wistar rats
# STATED CONDITIONS: male, Wistar, plasma, po; rat, 10 mg/kg p.o., 4.00 hours
Counter-ions that a name gives are not always drawn.
ASSAY READOUT: concentration at 4 h (ng/mL)
Give bare numbers, in ng/mL.

input: Value lookup for concentration at 4 h; key = NC/C=C(\F)CS(=O)(=O)c1cccc2cccnc12 [Compound 33, dihydrochloride]
output: 56.4

###

# ASSAY METHOD TEXT: In vivo pharmacokinetics, plasma concentration after p.o. dosing
# Set-up: species or system Wistar rats
# STATED CONDITIONS: male, Wistar, plasma, po; rat, 10 mg/kg p.o., 0.50 hours
Structures can show the parent of a compound that is named as a salt.
ASSAY READOUT: concentration at 0.5 h

{"COMPOUND": "NC/C=C(\\F)CS(=O)(=O)c1ccccc1 [Compound 1, hydrochloride]", "ASSAY VALUE": "736 ng/mL"}

input: Give its concentration at 0.5 h value. Item: NC/C=C(\F)CS(=O)(=O)c1cccc2cccnc12 [Compound 33, dihydrochloride]
output: 771 ng/mL

// data source = patent US12178791B2
